Just for reference, ChEMBL document CHEMBL6103537 is where these values come from.

Experiment: Stability in monkey plasma assessed as half life measured upto 60 mins by LC-MS/MS analysis
Format: ADME, cell-free, Macaca mulatta
Details: rhesus monkey
Result Type: half-life

Value of half-life reported for the molecule CC(C)(C)[C@H](NC(=O)c1cc2cc(C(F)(F)P(=O)(O)O)ccc2s1)C(=O)N1C[C@@H](OCCCCCC#Cc2cccc3c2CN(C2CCC(=O)NC2=O)C3=O)C[C@H]1C(=O)N1CCO[C@H](c2ccccc2)C1 (stereo partly specified) is > 2 h

* * *

Experiment: Stability in dog plasma assessed as parent compound remaining measured at 30 mins by LC-MS/MS analysis
Format: ADME, cell-free, Canis lupus familiaris
Conditions: read-out: Stability
Result Type: remaining at 0.5 h (%)
A number alone suffices; assume %.

Value of remaining at 0.5 h reported for the molecule CC(C)(C)[C@H](NC(=O)c1cc2cc(C(F)(F)P(=O)(O)O)ccc2s1)C(=O)N1C[C@@H](OCCCCCC#Cc2cccc3c2CN(C2CCC(=O)NC2=O)C3=O)C[C@H]1C(=O)N1CCO[C@H](c2ccccc2)C1 (stereo partly specified) is 75

* * *

Experiment: Stability in dog plasma assessed as half life measured upto 60 mins by LC-MS/MS analysis
Format: ADME, cell-free, Canis lupus familiaris
Result Type: half-life

Value of half-life reported for the molecule CC(C)(C)[C@H](NC(=O)c1cc2cc(C(F)(F)P(=O)(O)O)ccc2s1)C(=O)N1C[C@@H](OCCCCCC#Cc2cccc3c2CN(C2CCC(=O)NC2=O)C3=O)C[C@H]1C(=O)N1CCO[C@H](c2ccccc2)C1 (stereo partly specified) is > 2 h

* * *

Experiment: Stability in rat plasma assessed as parent compound remaining measured at 120 mins by LC-MS/MS analysis
Assay type: ADME, cell-free
Settings: read-out: Stability
Result Type: remaining at 2 h (%)
A number alone suffices; assume %.

Value of remaining at 2 h reported for the compound CC(C)(C)[C@H](NC(=O)c1cc2cc(C(F)(F)P(=O)(O)O)ccc2s1)C(=O)N1C[C@@H](OCCCCCC#Cc2cccc3c2CN(C2CCC(=O)NC2=O)C3=O)C[C@H]1C(=O)N1CCO[C@H](c2ccccc2)C1 (stereo partly specified) is 67

* * *

Assay: Stability in human plasma assessed as half life measured upto 60 mins by LC-MS/MS analysis
Type: ADME, cell-free
Result Type: half-life

Value of half-life reported for the molecule CC(C)(C)[C@H](NC(=O)c1cc2cc(C(F)(F)P(=O)(O)O)ccc2s1)C(=O)N1C[C@@H](OCCCCCC#Cc2cccc3c2CN(C2CCC(=O)NC2=O)C3=O)C[C@H]1C(=O)N1CCO[C@H](c2ccccc2)C1 (stereo partly specified) is > 120 min

* * *

Test: Metabolic stability in monkey liver microsome assessed as parent compound remaining measured at 45 mins in presence of NADPH by LC-MS/MS analysis
Type: ADME, Macaca mulatta
Settings: rhesus monkey, liver microsomes, read-out: Stability
Result Type: remaining at 0.75 h (%)
A number alone suffices; assume %.

Value of remaining at 0.75 h reported for the compound CC(C)(C)[C@H](NC(=O)c1cc2cc(C(F)(F)P(=O)(O)O)ccc2s1)C(=O)N1C[C@@H](OCCCCCC#Cc2cccc3c2CN(C2CCC(=O)NC2=O)C3=O)C[C@H]1C(=O)N1CCO[C@H](c2ccccc2)C1 (stereo partly specified) is 61

* * *

Molecular target: Protein cereblon/Signal transducer and activator of transcription 6 (Homo sapiens, UniProt P42226+Q96SW2)
Sequence (P42226 2-847 limits assumed): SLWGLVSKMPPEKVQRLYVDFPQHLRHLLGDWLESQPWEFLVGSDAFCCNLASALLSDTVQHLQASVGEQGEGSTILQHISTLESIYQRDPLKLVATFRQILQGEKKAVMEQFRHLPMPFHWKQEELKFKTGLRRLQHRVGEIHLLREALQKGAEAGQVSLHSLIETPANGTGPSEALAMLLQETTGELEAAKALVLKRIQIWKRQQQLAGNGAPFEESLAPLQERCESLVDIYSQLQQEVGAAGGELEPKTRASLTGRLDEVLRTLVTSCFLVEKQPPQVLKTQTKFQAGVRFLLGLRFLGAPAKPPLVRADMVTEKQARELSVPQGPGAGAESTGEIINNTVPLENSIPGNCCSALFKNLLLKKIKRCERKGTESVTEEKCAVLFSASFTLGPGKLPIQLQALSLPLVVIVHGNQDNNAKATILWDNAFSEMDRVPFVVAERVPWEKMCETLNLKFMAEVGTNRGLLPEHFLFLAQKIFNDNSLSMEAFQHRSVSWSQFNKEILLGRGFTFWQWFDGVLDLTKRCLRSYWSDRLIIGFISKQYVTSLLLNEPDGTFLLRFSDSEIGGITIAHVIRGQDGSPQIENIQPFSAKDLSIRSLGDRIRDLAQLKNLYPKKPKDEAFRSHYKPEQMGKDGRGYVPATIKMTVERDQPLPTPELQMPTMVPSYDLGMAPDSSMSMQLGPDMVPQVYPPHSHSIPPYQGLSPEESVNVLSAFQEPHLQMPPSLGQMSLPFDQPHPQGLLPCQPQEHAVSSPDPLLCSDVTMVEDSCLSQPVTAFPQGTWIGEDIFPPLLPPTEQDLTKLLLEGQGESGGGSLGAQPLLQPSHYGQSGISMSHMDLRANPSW
Sequence (Q96SW2 whole entry partner): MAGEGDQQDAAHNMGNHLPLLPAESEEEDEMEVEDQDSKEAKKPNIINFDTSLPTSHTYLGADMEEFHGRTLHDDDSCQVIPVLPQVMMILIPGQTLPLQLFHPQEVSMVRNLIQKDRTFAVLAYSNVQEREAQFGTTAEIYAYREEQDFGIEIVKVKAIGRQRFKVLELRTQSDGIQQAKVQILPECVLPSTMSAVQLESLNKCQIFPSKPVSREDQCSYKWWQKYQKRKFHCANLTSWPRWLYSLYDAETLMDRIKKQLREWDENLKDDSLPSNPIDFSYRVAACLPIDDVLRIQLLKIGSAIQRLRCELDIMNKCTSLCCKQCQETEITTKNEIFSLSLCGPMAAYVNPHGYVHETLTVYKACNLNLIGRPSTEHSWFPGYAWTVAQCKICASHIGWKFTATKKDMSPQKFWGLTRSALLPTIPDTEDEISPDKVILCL
Assay: PROTAC activity at STAT6/CRBN in human MV4-11 cells assessed as reduction in STAT6 level at 5 uM incubated for 12 hrs by Western blot analysis relative to control
Assay type: cell-based
Result Type: Emax

Value of Emax reported for the compound CC(C)(C)[C@H](NC(=O)c1cc2cc(C(F)(F)P(=O)(O)O)ccc2s1)C(=O)N1C[C@@H](OCCCCC#Cc2cccc3c2CN(C2CCC(=O)NC2=O)C3=O)C[C@H]1C(=O)N1CCO[C@H](c2ccccc2)C1 (stereo partly specified) is > 95%

Value of Emax reported for the compound CC(C)(C)[C@H](NC(=O)c1cc2cc(C(F)(F)P(=O)(O)O)ccc2s1)C(=O)N1C[C@@H](NC(=O)CCCCC#Cc2cccc3c2CN(C2CCC(=O)NC2=O)C3=O)C[C@H]1C(=O)N1CCO[C@H](c2ccccc2)C1 (stereo partly specified) is > 95%

Value of Emax reported for the compound CC(C)(C)[C@H](NC(=O)c1cc2cc(C(F)(F)P(=O)(O)O)ccc2s1)C(=O)N1C[C@@H](OCCCCCC#Cc2cccc3c2CN(C2CCC(=O)NC2=O)C3=O)C[C@H]1C(=O)N1CCO[C@H](c2ccccc2)C1 (stereo partly specified) is > 95%

Value of Emax reported for the compound CC(C)(C)[C@H](NC(=O)c1cc2cc(C(F)(F)P(=O)(O)O)ccc2s1)C(=O)N1C[C@@H](NC(=O)CCCCCCC#Cc2cccc3c2CN(C2CCC(=O)NC2=O)C3=O)C[C@H]1C(=O)N1CCO[C@H](c2ccccc2)C1 (stereo partly specified) is > 95%

Value of Emax reported for the compound CC(C)(C)[C@H](NC(=O)c1cc2cc(C(F)(F)P(=O)(O)O)ccc2s1)C(=O)N1C[C@@H](NC(=O)CCCC#Cc2cccc3c2CN(C2CCC(=O)NC2=O)C3=O)C[C@H]1C(=O)N1CCO[C@H](c2ccccc2)C1 (stereo partly specified) is > 95%

Value of Emax reported for the compound CC(C)(C)[C@H](NC(=O)c1cc2cc(C(F)(F)P(=O)(O)O)ccc2s1)C(=O)N1C[C@@H](NC(=O)CCCCCC#Cc2ccc3c(c2)CN(C2CCC(=O)NC2=O)C3=O)C[C@H]1C(=O)N1CCO[C@H](c2ccccc2)C1 (stereo partly specified) is > 90%
